Cited source: ChEMBL document CHEMBL1132259

- target: Integrin alpha-IIb/beta-3 (Homo sapiens, UniProt P05106+P08514)
- methodSummary: Equilibrium dissociation constant was measured from displacement of L-762,745 from Fibrinogen receptor of human platelets by flow cytometry
- Sequence (P05106 27-788 limits assumed): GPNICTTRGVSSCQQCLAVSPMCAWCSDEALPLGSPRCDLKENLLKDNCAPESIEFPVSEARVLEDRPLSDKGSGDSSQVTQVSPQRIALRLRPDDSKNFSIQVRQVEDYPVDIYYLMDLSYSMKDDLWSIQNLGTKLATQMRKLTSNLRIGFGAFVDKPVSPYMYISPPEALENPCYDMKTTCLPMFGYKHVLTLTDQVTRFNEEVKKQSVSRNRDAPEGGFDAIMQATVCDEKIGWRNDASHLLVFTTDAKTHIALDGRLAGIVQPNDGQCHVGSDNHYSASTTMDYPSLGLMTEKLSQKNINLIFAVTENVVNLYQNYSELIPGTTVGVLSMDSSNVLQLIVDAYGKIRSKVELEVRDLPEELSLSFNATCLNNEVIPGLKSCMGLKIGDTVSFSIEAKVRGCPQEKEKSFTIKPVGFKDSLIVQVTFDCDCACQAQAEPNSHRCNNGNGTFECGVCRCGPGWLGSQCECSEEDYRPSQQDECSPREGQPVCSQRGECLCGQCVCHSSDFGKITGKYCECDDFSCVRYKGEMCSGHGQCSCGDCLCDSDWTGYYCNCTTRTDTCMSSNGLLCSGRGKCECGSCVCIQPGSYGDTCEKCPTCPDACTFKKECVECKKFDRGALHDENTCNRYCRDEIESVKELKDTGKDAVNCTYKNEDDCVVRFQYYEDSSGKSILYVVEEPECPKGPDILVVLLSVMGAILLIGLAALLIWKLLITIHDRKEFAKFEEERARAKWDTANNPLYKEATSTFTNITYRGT
- Sequence (P08514 32-887 limits assumed): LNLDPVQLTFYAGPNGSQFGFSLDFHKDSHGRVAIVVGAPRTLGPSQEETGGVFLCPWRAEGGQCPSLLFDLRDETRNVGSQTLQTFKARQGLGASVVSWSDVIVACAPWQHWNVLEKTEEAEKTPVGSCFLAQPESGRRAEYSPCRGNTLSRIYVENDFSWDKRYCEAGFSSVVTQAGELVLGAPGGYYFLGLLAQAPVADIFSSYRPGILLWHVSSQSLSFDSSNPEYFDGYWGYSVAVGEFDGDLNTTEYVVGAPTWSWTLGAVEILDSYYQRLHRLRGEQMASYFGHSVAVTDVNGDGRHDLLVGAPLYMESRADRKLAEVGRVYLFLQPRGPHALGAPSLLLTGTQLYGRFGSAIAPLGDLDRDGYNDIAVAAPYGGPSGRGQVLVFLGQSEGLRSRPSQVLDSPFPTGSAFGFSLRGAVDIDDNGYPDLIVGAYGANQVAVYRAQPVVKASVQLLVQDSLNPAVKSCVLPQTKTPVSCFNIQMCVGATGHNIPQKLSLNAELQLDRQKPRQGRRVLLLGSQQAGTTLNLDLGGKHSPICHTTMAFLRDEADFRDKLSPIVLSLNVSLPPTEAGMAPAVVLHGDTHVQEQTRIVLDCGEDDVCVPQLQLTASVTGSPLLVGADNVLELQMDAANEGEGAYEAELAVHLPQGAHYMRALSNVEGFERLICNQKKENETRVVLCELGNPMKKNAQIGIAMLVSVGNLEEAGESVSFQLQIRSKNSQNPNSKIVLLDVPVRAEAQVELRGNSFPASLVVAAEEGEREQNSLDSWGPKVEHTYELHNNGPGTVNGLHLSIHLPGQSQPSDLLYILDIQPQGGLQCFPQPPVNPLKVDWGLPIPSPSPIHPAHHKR
- Sequence (P08514 891-1039 limits assumed): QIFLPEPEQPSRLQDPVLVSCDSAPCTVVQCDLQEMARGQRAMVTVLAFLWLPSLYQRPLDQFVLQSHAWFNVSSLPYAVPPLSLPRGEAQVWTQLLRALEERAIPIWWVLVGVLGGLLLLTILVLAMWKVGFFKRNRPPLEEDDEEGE
resultType: Kd (nM)

O=C(NC[C@H](NS(=O)(=O)c1cccs1)C(=O)O)c1cc2cc(CCC3CCNCC3)sc2s1 ... 0.15
O=C(O)CCNC(=O)c1ccc2c(c1)C(=O)N(CCC1CCNCC1)C2 ... 550
O=C(NC[C@H](NS(=O)(=O)c1cccnc1)C(=O)O)c1ccc2c(c1)C(=O)N(CCC1CCNCC1)C2 ... 2.2

(A) O=C(NC[C@H](NS(=O)(=O)c1cccnc1)C(=O)O)c1cc2cc(C3CCNCC3)sc2s1
(B) O=C(NC[C@H](NS(=O)(=O)c1ccc(Cl)cc1)C(=O)O)c1cc2cc(CCC3CCNCC3)sc2s1
(C) CCCCS(=O)(=O)N[C@@H](CNC(=O)c1cc2sc(CCC3CCNCC3)cc2s1)C(=O)O
Asked: Could you please order the items by Kd, going from the lowest number to the highest? In plain terms: list the labels in the order you were asked to.
Given back: B, C, A
(B: 0.026 nM, C: 3 nM, A: 22 nM)

(I) O=C(NC[C@H](NS(=O)(=O)c1ccccc1)C(=O)O)c1cc2cc(CCC3CCNCC3)sc2s1
(II) O=C(NCC(NS(=O)(=O)c1cccnc1)C(=O)O)c1cc2cc(CCC3CCNCC3)sc2s1 (single isomer, unassigned)
Asked: Which entry shows the lesser value of Kd here, I or II ? Label of pick, please.
Given back: I
(I: 0.023 nM, II: 28 nM)

---

- target: Integrin alpha-IIb/beta-3 (Homo sapiens, UniProt P05106+P08514)
- methodSummary: Displacement of L-762,745 from Fibrinogen Receptor of human platelets by flow cytometry
resultType: Kd (nM)

CCOCCS(=O)(=O)N[C@@H](CNC(=O)c1cc2sc(CCC3CCNCC3)cc2s1)C(=O)O ... 1.1

(I) O=C(NC[C@H](NS(=O)(=O)c1cccnc1)C(=O)O)c1cc2sc(CCC3CCNCC3)cc2s1
(II) CCOCCS(=O)(=O)N[C@@H](CNC(=O)c1cc2cc(CCC3CCNCC3)sc2s1)C(=O)O
(III) CCCCS(=O)(=O)N[C@@H](CNC(=O)c1cc2cc(CCC3CCNCC3)sc2s1)C(=O)O
(IV) CS(=O)(=O)N[C@@H](CNC(=O)c1cc2cc(CCC3CCNCC3)sc2s1)C(=O)O
Asked: Hey, quick one: sort these by Kd, largest value first please. Use the labels to give the ranking in the order requested.
Given back: IV, III, II, I

---

- target: Integrin alpha-IIb/beta-3 (Homo sapiens, UniProt P05106+P08514)
- methodSummary: Inhibition of [125I]L-692884 binding to purified GPIIb/IIIa by silicate scintillation proximity assay(SPA)
- Type: protein-complex assay
resultType: ED50 (pM)

For orientation, consider the following solved cases.
CCCCS(=O)(=O)N[C@@H](CNC(=O)c1cc2cc(CCC3CCNCC3)sc2s1)C(=O)O ... 120
CCOCCS(=O)(=O)N[C@@H](CNC(=O)c1cc2sc(CCC3CCNCC3)cc2s1)C(=O)O ... 270
CS(=O)(=O)N[C@@H](CNC(=O)c1cc2cc(CCC3CCNCC3)sc2s1)C(=O)O ... 1200
CCOCCS(=O)(=O)N[C@@H](CNC(=O)c1cc2cc(CCC3CCNCC3)sc2s1)C(=O)O ... 130

(P) O=C(NC[C@H](NS(=O)(=O)c1cccnc1)C(=O)O)c1cc2sc(CCC3CCNCC3)cc2s1
(Q) O=C(NCC(NS(=O)(=O)c1cccnc1)C(=O)O)c1cc2cc(CCC3CCNCC3)sc2s1 (single isomer, unassigned)
Asked: Compare P and Q by numeric ED50 and name the larger one. Respond with the label that goes with your answer.
Given back: Q
(Q: 470 pM, P: 110 pM)

---

- target: Integrin alpha-IIb/beta-3 (Homo sapiens, UniProt P05106+P08514)
- methodSummary: In vitro inhibition of [125I]L-692884 binding to Fibrinogen receptor by silicate scintillation proximity assay(SPA)
- Assay type: protein-complex assay
resultType: IC50 (nM)

O=C(O)CCNC(=O)c1ccc2c(c1)C(=O)N(CCC1CCNCC1)C2 ... 13
CCCCS(=O)(=O)N[C@@H](CNC(=O)c1cc2sc(CCC3CCNCC3)cc2s1)C(=O)O ... 0.21
O=C(NC[C@H](NS(=O)(=O)c1cccs1)C(=O)O)c1cc2sc(CCC3CCNCC3)cc2s1 ... 0.04
O=C(NC[C@H](NS(=O)(=O)c1cccs1)C(=O)O)c1cc2cc(CCC3CCNCC3)sc2s1 ... 0.04
O=C(NC[C@H](NS(=O)(=O)c1cccnc1)C(=O)O)c1cc2cc(CCCC3CCNCC3)sc2s1 ... 0.07

(P) O=C(NC[C@H](NS(=O)(=O)c1ccc(Cl)cc1)C(=O)O)c1cc2cc(CCC3CCNCC3)sc2s1
(Q) O=C(NC[C@H](NS(=O)(=O)c1cccnc1)C(=O)O)c1cc2cc(CCC3CCNCC3)sc2s1
(R) O=C(NC[C@H](NS(=O)(=O)c1cccnc1)C(=O)O)c1cc2cc(C3CCNCC3)sc2s1
(S) O=C(NC[C@H](NS(=O)(=O)c1ccccc1)C(=O)O)c1cc2cc(CCC3CCNCC3)sc2s1
Asked: Order these by IC50, descending, and give the full ranking. Form entry: labels listed in requested order.
Given back: R, P, Q, S
(R: 0.45 nM, P: 0.09 nM, Q: 0.047 nM, S: 0.03 nM)

---

- target: Integrin alpha-IIb/beta-3 (Homo sapiens, UniProt P05106+P08514)
- methodSummary: Equilibrium dissociation constant was measured from displacement of L-762,745 from Fibrinogen receptor of human platelets by flow cytometry
pKd: −log10 of the molar value.
resultType: pKd

O=C(NC[C@H](NS(=O)(=O)c1cccs1)C(=O)O)c1cc2sc(CCC3CCNCC3)cc2s1 ... 10.04
O=C(NC[C@H](NS(=O)(=O)c1ccccc1)C(=O)O)c1cc2sc(CCC3CCNCC3)cc2s1 ... 9.82

(A) O=C(NC[C@H](NS(=O)(=O)c1cccnc1)C(=O)O)c1cc2cc(CCC3CCNCC3)sc2s1
(B) O=C(NC[C@H](NS(=O)(=O)c1cccnc1)C(=O)O)c1cc2cc(CCCC3CCNCC3)sc2s1
Asked: Exercise: compare A and B ; which one has the greater pKd? Answer with the label corresponding to your selection.
Given back: A
